# test.target: LK35.2-hPD-L1 cells / PE-labeled PD-1-Ig (Homo sapiens, UniProt Q9NZQ7)
# Construct: expressed in transfected cells; host or cells: LK35.2 mouse B cell line
# Sequence (Q9NZQ7 19-290): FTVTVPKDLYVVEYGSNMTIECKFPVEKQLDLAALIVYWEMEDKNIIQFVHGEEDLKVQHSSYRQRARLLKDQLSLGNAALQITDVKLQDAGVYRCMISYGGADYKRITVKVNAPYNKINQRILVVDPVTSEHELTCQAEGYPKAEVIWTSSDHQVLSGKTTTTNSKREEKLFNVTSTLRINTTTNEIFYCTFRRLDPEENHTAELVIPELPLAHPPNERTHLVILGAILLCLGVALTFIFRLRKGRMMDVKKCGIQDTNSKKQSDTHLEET
# measurement.notes: LK35.2-hPD-L1 cell binding high-content screening assay
# Type: cell-based
# assay.conditions: cluster symbol; cell line of CBA not given (LK35.2-hPD-L1 or 293T-hPD-L1); read-out: CBA IC50 cluster
# Experimental: LK35.2-hPD-L1 Cell Binding High-Content Screening Assay. Phycoerythrin (PE) was covalently linked to the Ig epitope tag of human PD-1-Ig and fluorescently-labeled PD-1-Ig was used for binding studies with a mouse B cell line (LK35.2) stably over-expressing human PD-L1 (LK35.2-hPD-L1). Briefly, 3×10^3 LK35.2-hPD-L1 cells were seeded into 384 well plates in 20 ul of RPMI supplemented with 10% fetal calf serum and cultured overnight. […]
Starred links: 1 amine or outer side, 2 acyl side, 3 side chain; linkers in the order of their positions; H or OH if unused. Positions of bridges follow the written chain, without caps; N, C: chain ends. Non-standard residues stand in square brackets, D forms with d. Residues, ends and D or L forms follow the SMILES beside them. ξ: configuration not given here. X14 = O=C([C@H](Cc1cc(F)c(F)c(Cl)c1)N[*:1])[*:2]; Phe(4-Cl) = N[C@@H](Cc1ccc(Cl)cc1)C(=O)O; Phe(4-NH2) = Nc1ccc(C[C@H](N)C(=O)O)cc1; Bta = N[C@@H](Cc1csc2ccccc12)C(=O)O; Hyp = O=C(O)[C@@H]1C[C@@H](O)CN1; NMeF = CN[C@@H](Cc1ccccc1)C(=O)O; dNMeNle = CCCC[C@@H](NC)C(=O)O; NMeNle = CCCC[C@H](NC)C(=O)O; NMeA = CN[C@@H](C)C(=O)O; Orn = NCCC[C@H](N)C(=O)O; Dab = NCC[C@H](N)C(=O)O; Dap = NC[C@H](N)C(=O)O; ξP = O=C(O)C1CCCN1; Sar = CNCC(=O)O
parameter.measured: IC50

Form field - read-out: IC50; system: LK35.2-hPD-L1 cells / PE-labeled PD-1-Ig (Homo sapiens, UniProt Q9NZQ7); submitted item: CCCC[C@@H]1C(=O)N(C)[C@H](CCCC)C(=O)N[C@@H](CCCN)C(=O)N[C@@H](C(=O)NCC(N)=O)CSCC(=O)N[C@@H](Cc2ccc(O)cc2)C(=O)N2CCCC2C(=O)N[C@H](CC(=O)O)C(=O)N2CCC[C@H]2C(=O)N[C@H](Cc2c[nH]cn2)C(=O)N[C@@H](CCC(=O)O)C(=O)N2CCCC2C(=O)N[C@H](Cc2c[nH]c3ccccc23)C(=O)N[C@@H](CCN)C(=O)N[C@@H](Cc2c[nH]c3ccccc23)C(=O)N1C (some centres unmarked) [Example 1216] ({CH2CO}-Y[ξP][dD]P[dH]E[ξP][dW][Dab]W[dNMeNle][dNMeNle][Orn][dC]G-NH2; thioether N-14) > 74.3 nM

Similarly, CCCC[C@H]1C(=O)N(C)CC(=O)N[C@@H](CC(=O)O)C(=O)N[C@@H](C(C)C)C(=O)N(C)[C@@H](Cc2ccccc2)C(=O)N[C@@H](Cc2ccc(O)cc2)C(=O)N(C)CC(=O)N[C@@H](Cc2c[nH]c3ccccc23)C(=O)N[C@@H](Cc2ccc(O)cc2)C(=O)N[C@@H](CC(C)C)C(=O)N[C@H](C(=O)NCC(N)=O)CSCC(=O)N[C@@H](Cc2ccc(Cl)cc2)C(=O)N(C)[C@@H](Cc2ccccc2)C(=O)N1C [Example 3067] ({CH2CO}-[Phe(4-Cl)][NMeF][NMeNle][Sar]DV[NMeF]Y[Sar]WYLCG-NH2; thioether N-13) ? 0.158 to 4.71 nM

Param item: CCCC[C@H]1C(=O)N(C)[C@@H](CCCC)C(=O)N[C@@H](C)C(=O)N[C@H](C(=O)NCC(N)=O)CSCC(=O)N[C@@H](Cc2ccc(O)cc2)C(=O)N(C)[C@@H](C)C(=O)N[C@@H](CC(N)=O)C(=O)N2CCC[C@H]2C(=O)N[C@@H](CN)C(=O)N[C@@H](CCC(=O)O)C(=O)N2C[C@H](O)C[C@H]2C(=O)N[C@@H](Cc2c[nH]c3ccccc23)C(=O)N[C@@H](CO)C(=O)N[C@@H](Cc2c[nH]c3ccccc23)C(=O)N1C [Example 1171] ({CH2CO}-Y[NMeA]NP[Dap]E[Hyp]WSW[NMeNle][NMeNle]ACG-NH2; thioether N-14) 0.158 to 4.71 nM

For CCCC[C@H]1C(=O)N(C)CC(=O)N[C@@H](CC(=O)O)C(=O)N[C@@H](C(C)C)C(=O)N(C)[C@@H](Cc2ccccc2)C(=O)N[C@@H](Cc2ccc(O)cc2)C(=O)N(C)CC(=O)N[C@@H](Cc2c[nH]c3ccccc23)C(=O)N[C@@H](Cc2ccc(O)cc2)C(=O)N[C@@H](CC(C)C)C(=O)N[C@H](C(=O)NCC(N)=O)CSCC(=O)N[C@@H](Cc2cc(F)c(F)c(Cl)c2)C(=O)N(C)[C@@H](Cc2ccccc2)C(=O)N1C [Example 3186] ({CH2CO}-[X14][NMeF][NMeNle][Sar]DV[NMeF]Y[Sar]WYLCG-NH2; thioether N-13) then? 0.158 to 4.71 nM

Now give it for CCCC[C@H]1C(=O)N(C)[C@@H](CCCC)C(=O)N[C@@H](CCCNC(=N)N)C(=O)N[C@H](C(=O)NCC(N)=O)CSCC(=O)N[C@@H](Cc2ccccc2)C(=O)N(C)[C@@H](C)C(=O)N[C@@H](CC(N)=O)C(=O)N2CCC[C@H]2C(=O)N[C@@H](Cc2cnc[nH]2)C(=O)N[C@@H](CC(C)C)C(=O)N[C@@H](CCC(N)=O)C(=O)N[C@@H](Cc2c[nH]c3ccccc23)C(=O)N[C@@H](CO)C(=O)N[C@@H](Cc2c[nH]c3ccccc23)C(=O)N1C [Example 1074] ({CH2CO}-F[NMeA]NPHLQWSW[NMeNle][NMeNle]RCG-NH2; thioether N-14) too. > 74.3 nM

Now give it for CCCC[C@H]1C(=O)N(C)CC(=O)N[C@@H](CC(=O)O)C(=O)N[C@@H](C(C)C)C(=O)N(C)[C@@H](Cc2ccccc2)C(=O)N[C@@H](Cc2ccc(O)cc2)C(=O)N(C)CC(=O)N[C@@H](Cc2c[nH]c3ccccc23)C(=O)N[C@@H](Cc2ccc(O)cc2)C(=O)N[C@@H](CC(C)C)C(=O)N[C@H](C(=O)NCC(N)=O)CSCC(=O)N[C@@H](Cc2ccc(OC)cc2)C(=O)N(C)[C@@H](Cc2ccccc2)C(=O)N1C [Example 3089] ({CH2CO}-Y(Me)[NMeF][NMeNle][Sar]DV[NMeF]Y[Sar]WYLCG-NH2; thioether N-13) too. > 74.3 nM

Same question for CCCC[C@H]1C(=O)N(C)CC(=O)N[C@@H](CC(=O)O)C(=O)N[C@@H](C(C)C)C(=O)N(C)[C@@H](Cc2ccccc2)C(=O)N[C@@H](Cc2ccc(O)cc2)C(=O)N(C)CC(=O)N[C@@H](Cc2c[nH]c3ccccc23)C(=O)N[C@@H](Cc2ccc(N)cc2)C(=O)N[C@@H](CC(C)C)C(=O)N[C@H](C(=O)NCC(N)=O)CSCC(=O)N[C@@H](Cc2ccccc2)C(=O)N(C)[C@@H](Cc2ccccc2)C(=O)N1C [Example 3140] ({CH2CO}-F[NMeF][NMeNle][Sar]DV[NMeF]Y[Sar]W[Phe(4-NH2)]LCG-NH2; thioether N-13) please. 4.78 to 72.9 nM

Follow-up item: CCCC[C@H]1C(=O)N(C)[C@@H](CCCC)C(=O)N[C@@H](CCCN)C(=O)N[C@H](C(=O)NCC(N)=O)CSCC(=O)N[C@@H](Cc2ccc(O)cc2)C(=O)N(C)[C@@H](C)C(=O)N[C@@H](CC(N)=O)C(=O)N2CCC[C@H]2C(=O)N[C@@H](CN)C(=O)N[C@@H](CC(C)C)C(=O)N2C[C@H](O)C[C@H]2C(=O)N[C@@H](Cc2c[nH]c3ccccc23)C(=O)N[C@@H](CO)C(=O)N[C@@H](Cc2csc3ccccc23)C(=O)N1C [Example 1139] ({CH2CO}-Y[NMeA]NP[Dap]L[Hyp]WS[Bta][NMeNle][NMeNle][Orn]CG-NH2; thioether N-14) 0.158 to 4.71 nM
